Target: T1, human PTK7 protein (extracellular sequence of human PTK7 with C-terminal 6×His tag) (human, UniProt Q13308 31-704)
T1 construct: extracellular domain; Expressed transiently in HEK293 cells; also called human PTK7-His; human PTK7-His protein
T1 sequence: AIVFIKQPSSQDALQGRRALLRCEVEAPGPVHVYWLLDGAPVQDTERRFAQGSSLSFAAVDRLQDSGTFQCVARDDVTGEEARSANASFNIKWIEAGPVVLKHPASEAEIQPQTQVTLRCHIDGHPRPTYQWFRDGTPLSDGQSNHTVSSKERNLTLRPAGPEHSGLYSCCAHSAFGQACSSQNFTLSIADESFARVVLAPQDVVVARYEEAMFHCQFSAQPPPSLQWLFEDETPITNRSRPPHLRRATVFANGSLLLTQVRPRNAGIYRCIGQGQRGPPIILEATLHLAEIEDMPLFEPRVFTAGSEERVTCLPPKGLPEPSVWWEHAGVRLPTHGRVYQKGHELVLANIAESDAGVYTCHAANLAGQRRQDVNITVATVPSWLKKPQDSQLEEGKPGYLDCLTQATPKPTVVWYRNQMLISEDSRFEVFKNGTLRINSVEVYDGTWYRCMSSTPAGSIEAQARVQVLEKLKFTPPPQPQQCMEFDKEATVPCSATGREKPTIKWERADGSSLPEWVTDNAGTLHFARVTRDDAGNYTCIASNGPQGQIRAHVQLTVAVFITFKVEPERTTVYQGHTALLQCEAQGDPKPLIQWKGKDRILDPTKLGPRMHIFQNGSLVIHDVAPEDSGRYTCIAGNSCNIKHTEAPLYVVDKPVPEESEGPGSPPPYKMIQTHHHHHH
Assay: BLI (ForteBio), antibody on Protein A sensor, human PTK7-His 200-3.125 nM, 1:1 global fit
Reported endpoint: koff (s⁻¹)
Answers are plain numbers, in s⁻¹.

Sample 4E12HZ (anti-human PTK7 humanized antibody) (antibody, human IgG1, kappa, V domains shown, Human IgG1 heavy chain constant region and human Kappa light chain constant region) VH: QVQLVQSGAEVKRPGASVKVSCKTSGYTFTDYAMHWVRQAPGKGLEWIGVISTYYGNVSYNQKFKGRVTMTRDTSTSTVYMELSSLTSEDTAIYYCARGFAYWGQGTLVTVSS VL: DIVITQTELSLPVTPGERASISCRSSKSLQKKDGKTYLNWFLQKPGQSPQLLIYLMSTRASGVSDRFSGSGSGTDFTLKISRVEAEDVGVYYCQQLVEYPFTFGQGTKLEIKR ; koff observed: 0.00534

For this binder ( 64A10HZ (anti-human PTK7 humanized antibody) (antibody, human IgG1, kappa, V domains shown, Human IgG1 heavy chain constant region and human Kappa light chain constant region; expressed in CHO-S cells) VH: QVQLQESGPGLVKPSETLSLTCTVSGFSLTSYGVYWVRQPPGKGPEWLGVIWTSGNTNYNPSLKSRLTISKDNSKNQVSLKLSSVTAADTAVYYCVKHDGGNYVGVMNYWGQGTLVTVSS VL: EIVMTQSPDFQSVTPKEKVTITCRASQSISDYLHWYQQKPDQSPKLLIKYASQSISGVPSRFSGSGSGSDFTLTINSLEAEDAATYYCQNGHSFPPTFGQGTKLEIKR ), measured koff is 0.00278

Record summary for Hu24 (PTK7 control antibody, taken from Hu24 in the Patent CN201580030255) (antibody) chain 1: QVQLVQSGPEVKKPGASVKVSCKASGYTFTDYAVHWVRQAPGKRLEWIGVISTYNDYTYNNQDFKGRVTMTRDTSASTAYMELSRLRSEDTAVYYCARGNSYFYALDYWGQGTSVTVSS chain 2: EIVLTQSPATLSLSPGERATLSCRASESVDSYGKSFMHWYQQKPGQAPRLLIYRASNLESGIPARFSGSGSGTDFTLTISSLEPEDFAVYYCQQSNEDPWTFGGGTKLEIK : reported koff = 0.00105

--- query ---
Reported koff for 19C2HZ (anti-human PTK7 humanized antibody) (antibody, human IgG1, kappa, V domains shown, Human IgG1 heavy chain constant region and human Kappa light chain constant region) VH: QVTLKESGPTLVKPTQTLTLTCTFSGFSLSTSGMGINWIRQPPGKALEWLALIWWDDDKYYNPSLKNRLTITKDTSKNQVVLTMTNMDPVDTATYYCARSLITTAPSDYWGQGTLVTVSS VL: DIQMTQSPSSLSASVGDRVTITCKASQNVGTAITWYQQRPGKAPKLLIYSASNRYTGVPSRFSGSGSGTDFTLTISNLQPEDLATYFCLQYSDYPLTFGQGTRLEIKR was 0.000728
